The measurements presented in this section are drawn from patent US7329737.

Reported Kd values for the following binders.
- testedTarget: T1, hK1 (human tissue kallikrein 1), recombinant (human, UniProt P06870 25-262)
- T1 construct: Expressed in P. pastoris from KLK1 cDNA and purified; enzymatically active; also called KLK1; Recombinant (Pichia) Kallikrein
- assayText: SPR
Numeric answer only, unit nM assumed.

Study these solved cases before continuing.
M0132-H11 (Fab, V domains shown) VH: EVQLLESGGGLVQPGGSLRLSCAASGFTFSHYQMHWVRQAPGKGLEWVSRIRSSGGATSYADSVKGRFTISRDNSKNTLYLQMNSLRAEDTAVYYCARGGGYSYYFDYWGQGTLVTVSS VL: AQYELTQPPSASGTPGQRVTISCSGSSSNIGSNYVYWYQQLPGTAPKLLIYRNNQRPSGVPDRFSGSKSGTSASLAISGLRSEDEADYYCAAWDDSLSGHAVFGGGTQLTVLG : 4.5
M0093-G06 (Fab, V domains shown) VH: EVQLLESGGGLVQPGGSLRLSCAASGFTFSNYHMDWVRQAPGKGLEWVSVIGPSGGFTRYADSVKGRFTISRDNSKNTLYLQMNSLRAEDTAVYYCARALGGSLDYWGQGTLVTVSS VL: AQSALTQPRSVSGSLGQSVTISCTGSTSDVGGYTYVSWYQQEPGKAPKLMIHDVSKRPSGVPDRFSGSKSGNTASLIISGLQAEDEADYYCCSYAGSYSYVFGTGTKVTVLG : 8.4
M0136-F08 (Fab, V domains shown) VH: EVQLLESGGGLVQPGGSLRLSCAASGFTFSHYKMGWVRQAPGKGLEWVSSIRPSGGATKYADSVKGRFTISRDNSKNTLYLQMNSLRAEDTAVYYCARVGIWDAFDIWGQGAMVTVSS VL: DIQMTQSPGTLSLSPGERATLSCRASQSVSSSYLAWYQQKPGQAPRLLIYDASNRATGIPARFSGSGSGTDFTLTISSLEPEDFAVYYCQQWDTFGQGTKLEIKR : 5.97

**Q:** Find the recorded Kd belonging to M0110-D06 (Fab, V domains shown) VH: EVQLLESGGGLVQPGGSLRLSCAASGFTFSWYRMAWVRQAPGKGLEWVSYIGPSGGSTSYADSVKGRFTISRDNSKNTLYLQMNSLRAEDTATYYCARVGTFYGMDVWGQGTTVTVSS VL: DIQMTQSPSTLSASLGDRVIITCRASQGIRSWLAWYQQKPGKAPKLLIYAASSLQSGVPSRFSGSGSGTDFTLTISSLQPEDFATYYCQQSYSTPWTFGQGTKVEIKR and report it.
**A:** 232

**Q:** Data request, read-out Kd, for M0135-F03 (Fab, V domains shown) VH: EVQLLESGGGLVQPGGSLRLSCAASGFTFSHYVMIWVRQAPGKGLEWVSWIYPSGGNTIYADSVKGRFTISRDNSKNTLYLQMNSLRAEDTATYYCARVGVWYGMDVWGQGTTVTVSS VL: DIQMTQSPATLSLSPGERATLSCRASQSVSSYLAWYQQKPGQAPRLLIYDASNRATGIPARFSGSGSGTDFTLTISSLEPEDFAVYYCQQRSNWPSPIAFGQGTRLEIKR
**A:** 2.66
